Test Target: Sulfhydryl oxidase 1 (Homo sapiens)
Assay Text: inhibition of human sulfhydryl oxidase QSOX1 – biochemical, HyperBlu H2O2 luminescence, HTS, primary screen (AID 1347420); further: values above 100% were filed as inconclusive
Details: recombinant QSOX1, HyperBlu H2O2 luminescence; at 12.5 µM; stronger effect = higher value; active = any value above zero
The campaign covered roughly 1,300 compounds. About 980 (75%) were called active. Roughly 4% stayed inconclusive and do not appear here. Some of the results follow.
Experimental Readout: inhibition (%)
The reply should contain only the number, in %.

In the examples that follow, each entry is paired with its recorded inhibition.
{"columns": ["Compound", "Experimental Readout", "Recorded Value"],
 "data": [
  ["C[C@@H](O)[C@H]1C(=O)N2C(C(=O)O)=C(SCCN=CN)C[C@H]12", "inhibition", 17.6],
  ["CN(C)c1cc2c(Nc3ccc4c(cnn4Cc4ccccc4)c3)ncnc2cn1", "inhibition", 15.4],
  ["CN(Cc1cnc2nc(N)nc(N)c2n1)c1ccc(C(=O)N[C@@H](CCC(=O)O)C(=O)O)cc1", "inhibition", 3.6]
]}

Challenge: Write down inhibition measured for item O=C(CCCCCN1CCN(c2ccccc2-c2ccccc2)CC1)NC1CCCc2ccccc21 (stereo not given)
Response given: 22.8

Challenge: Write down inhibition measured for item CCN(CC)CCNC(=O)c1cc(S(C)(=O)=O)ccc1OC
Response given: 0.6

Challenge: Write down inhibition measured for item CC(C)(C)[C@]1(O)CCN2C[C@H]3c4ccccc4CCc4cccc(c43)[C@@H]2C1
Response given: -3.5

* * *

Test Target: Sulfhydryl oxidase 1 (Homo sapiens) (UniProt O00391)
Sequence (O00391 whole entry, looked up): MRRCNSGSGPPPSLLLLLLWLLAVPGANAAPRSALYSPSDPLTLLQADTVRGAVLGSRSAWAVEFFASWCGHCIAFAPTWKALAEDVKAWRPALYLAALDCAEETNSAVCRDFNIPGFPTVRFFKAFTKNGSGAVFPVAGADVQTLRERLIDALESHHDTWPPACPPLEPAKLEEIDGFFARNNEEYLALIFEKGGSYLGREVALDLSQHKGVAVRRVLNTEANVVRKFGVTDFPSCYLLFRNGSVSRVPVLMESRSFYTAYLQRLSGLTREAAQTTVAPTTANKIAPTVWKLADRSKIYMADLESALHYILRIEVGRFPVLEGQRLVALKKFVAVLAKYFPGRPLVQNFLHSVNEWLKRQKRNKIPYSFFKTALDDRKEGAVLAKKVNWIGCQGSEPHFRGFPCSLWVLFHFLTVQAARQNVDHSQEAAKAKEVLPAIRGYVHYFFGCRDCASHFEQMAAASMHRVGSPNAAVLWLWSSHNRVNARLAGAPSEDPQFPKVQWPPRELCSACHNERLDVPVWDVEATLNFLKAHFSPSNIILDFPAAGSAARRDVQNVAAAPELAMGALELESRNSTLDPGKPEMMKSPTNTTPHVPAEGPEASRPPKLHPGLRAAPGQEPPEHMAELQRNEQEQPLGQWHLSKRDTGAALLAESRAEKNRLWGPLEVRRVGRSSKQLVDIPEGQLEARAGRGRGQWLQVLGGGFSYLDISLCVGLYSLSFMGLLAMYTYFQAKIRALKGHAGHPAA
Assay Text: inhibition of human sulfhydryl oxidase QSOX1 – biochemical, HyperBlu H2O2 luminescence, HTS, primary screen (AID 1347420); further: values above 100% were filed as inconclusive
Details: recombinant QSOX1, HyperBlu H2O2 luminescence; at 12.5 µM; stronger effect = higher value; active = any value above zero
In all, about 1,300 compounds went through this assay and about 980 (75%) were called active. Another 4% or so got no clear call; they are omitted. The list shows a part of the results.
Choose one outcome from this list and give only that: active, inactive

Observe how each entry below is paired with its result.
{"columns": ["Compound", "Discrete Label"],
 "data": [
  ["CCCCCCC(=O)OC1CC(C)(C)NC(C)(C)C1", "inactive"],
  ["O=c1[nH]c2cc(Cl)ccc2c(O)c1-c1ccc(Oc2ccccc2)cc1", "active"],
  ["c1ccc(CN2CCC3(CCCc4ccccc43)CC2)cc1", "inactive"],
  ["N[C@@H](CC(=O)O)C(=O)O", "active"],
  ["C=CCN1CCc2c(cc(O)c(O)c2Cl)C(c2ccccc2)C1 (stereo unspecified)", "active"],
  ["Cc1[nH]c(=O)c(C#N)cc1-c1ccncc1", "active"]
]}

Challenge: Please state the recorded outcome for this compound: CCC(=O)N1CCN(C(=O)c2ccccc2)CC1
Response given: active

Challenge: Please state the recorded outcome for this compound: COc1ccc(Cc2nccc3cc(OC)c(OC)cc23)cc1OC
Response given: inactive

Challenge: Please state the recorded outcome for this compound: CC12C(=O)OC(=O)C1(C)C1CCC2O1 (stereo unspecified)
Response given: active

Challenge: Please state the recorded outcome for this compound: O=[N+]([O-])c1ccc2c(c1)S(=O)(=O)C=C2
Response given: active

Challenge: Please state the recorded outcome for this compound: CCCC1O[C@@H]2C[C@H]3[C@@H]4CCC5=CC(=O)C=C[C@]5(C)[C@H]4[C@@H](O)C[C@]3(C)[C@]2(C(=O)CO)O1 (stereo partly specified)
Response given: active

Challenge: Please state the recorded outcome for this compound: CNCCCC1c2ccccc2C=Cc2ccccc21
Response given: active

Challenge: Please state the recorded outcome for this compound: CCN(CC)CCOCCOC(=O)C1(c2ccccc2)CCCC1
Response given: inactive

Challenge: Please state the recorded outcome for this compound: COc1ccc(CCN(C)CCCC(C#N)(c2cc(OC)c(OC)c(OC)c2)C(C)C)cc1OC (stereo unspecified)
Response given: active

Challenge: Please state the recorded outcome for this compound: CC(=O)[C@]1(O)Cc2c(O)c3c(c(O)c2[C@@H](O[C@H]2C[C@H](N)[C@H](O)[C@H](C)O2)C1)C(=O)c1ccccc1C3=O
Response given: active

Challenge: Please state the recorded outcome for this compound: COc1ccc(CCN(C)CCCC(C#N)(c2ccc(OC)c(OC)c2)C(C)C)cc1OC (stereo unspecified)
Response given: active

Challenge: Please state the recorded outcome for this compound: CC(=O)Oc1cc(C(C)C)c(OCCN(C)C)cc1C
Response given: active

Challenge: Please state the recorded outcome for this compound: Nc1nc(N)c(N=O)c(OCC2CCCCC2)n1
Response given: active

Measured values drawn from PubChem BioAssay AID1347420 for this set.
